Test system: Mus musculus
EXPERIMENT: In vivo analgesic activity in the mouse tail-flick assay following s.c. administration.
Assay type: functional
CONDITION_INFO: sc
OBSERVED_PROPERTY: ED50 (µmol/kg)
Express it in µmol/kg; write the number only.

stdin: Could you tell me which ED50 is on file for "C[C@@H](NC(=O)[C@@H](N)Cc1ccc(O)cc1)C(=O)N[C@@H](Cc1ccccc1)C(=O)NCC(N)=O" ?
stdout: 68.1

stdin: Could you tell me which ED50 is on file for CC(C(=O)NCNC(=O)[C@H](Cc1ccccc1)NC(=O)[C@@H](C)NC(=O)[C@@H](N)Cc1ccc(O)cc1)c1ccccc1 (stereo partly specified) ?
stdout: 39.5

stdin: Could you tell me which ED50 is on file for CC(NC(=O)CNC(=O)[C@H](Cc1ccccc1)NC(=O)[C@@H](C)NC(=O)[C@@H](N)Cc1ccc(O)cc1)c1ccccc1 (stereo partly specified) ?
stdout: 13.6

stdin: Could you tell me which ED50 is on file for CC(NC(=O)CC(=O)N[C@H](Cc1ccccc1)NC(=O)[C@@H](C)NC(=O)[C@@H](N)Cc1ccc(O)cc1)c1ccccc1 (stereo partly specified) ?
stdout: 44.2

stdin: Could you tell me which ED50 is on file for "C[C@@H](NC(=O)[C@@H](N)Cc1ccc(O)cc1)C(=O)N[C@@H](Cc1ccccc1)NC(=O)CC(=O)NC12CC3CC(CC(C3)C1)C2" ?
stdout: 55.5

stdin: Could you tell me which ED50 is on file for "C[C@@H](NC(=O)[C@@H](N)Cc1ccc(O)cc1)C(=O)N[C@@H](Cc1ccccc1)C(=O)NCC(=O)NC12CC3CC(CC(C3)C1)C2" ?
stdout: 18.8

* * *

EXPERIMENT: Half-life of the compound
Format: ADME
OBSERVED_PROPERTY: half-life (min)
Express it in min; write the number only.

stdin: Could you tell me which half-life is on file for "C[C@@H](NC(=O)[C@@H](N)Cc1ccc(O)cc1)C(=O)N[C@@H](Cc1ccccc1)NC(=O)CC(=O)NC12CC3CC(CC(C3)C1)C2" ?
stdout: 50

stdin: Could you tell me which half-life is on file for "C[C@@H](NC(=O)[C@@H](N)Cc1ccc(O)cc1)C(=O)N[C@@H](Cc1ccccc1)C(=O)NCNC(=O)Cc1ccccc1" ?
stdout: 45

stdin: Could you tell me which half-life is on file for CC(C(=O)NCNC(=O)[C@H](Cc1ccccc1)NC(=O)[C@@H](C)NC(=O)[C@@H](N)Cc1ccc(O)cc1)c1ccccc1 (stereo partly drawn) ?
stdout: 65

* * *

EXPERIMENT: Half-life of the compound
Type: ADME
Record form. Attribute: half-life. Fill in for each entry.
Express it in h; write the number only.

stdin: Could you tell me which half-life is on file for "C[C@@H](NC(=O)[C@@H](N)Cc1ccc(O)cc1)C(=O)N[C@@H](Cc1ccccc1)C(=O)NCNC(=O)C12CC3CC(CC(C3)C1)C2" ?
stdout: 1.08

stdin: Could you tell me which half-life is on file for C[C@@H](NC(=O)[C@@H](N)Cc1ccc(O)cc1)C(=O)N[C@@H](Cc1ccccc1)C(=O)NCC(=O)N[C@@H](Cc1ccc(O)cc1)C(=O)N1CCC[C@H]1C(=O)N[C@@H](CO)C(N)=O [DERMORPHIN] ?
stdout: 0.583

stdin: Could you tell me which half-life is on file for CC(NC(=O)CC(=O)N[C@H](Cc1ccccc1)NC(=O)[C@@H](C)NC(=O)[C@@H](N)Cc1ccc(O)cc1)c1ccccc1 (stereo partly drawn) ?
stdout: 1
